Data origin, for the record: patent US20210107871A1

Test system: pseudotype VSV (expressing GFP) having the surface glycoprotein of Ebola virus (zaire sp.)
Assay: microbe, parasite or virus in culture
Format: cell-based
Conditions: Vesicular stomatitis virus, Vero C1008, 18 h, Compound Conc. 0.312 μM; read-out: Viral Infection rate (%)
activity at 0.312 µM values, listed per item
property measured: activity at 0.312 µM

{"columns": ["compound", "result"],
 "data": [
  ["CCN1CCC(CN(c2ccc(OC)cc2-c2ccccc2)S(=O)(=O)c2ccccc2)CC1 [4-21]", "0.75%"],
  ["CCN(CC)CCCN(c1ccc(OC)cc1[N+](=O)[O-])S(=O)(=O)c1cccc(F)c1 [4-4]", "84.4%"],
  ["CCN(CC)CCCN(c1ccc(OC)cc1[N+](=O)[O-])S(=O)(=O)c1ccc(F)cc1 [4-3]", "105%"],
  ["CCN(CC)CCCN(c1ccc(OC)cc1[N+](=O)[O-])S(=O)(=O)c1ccc2ccccc2c1 [4-10]", "106%"],
  ["CCN(CC)CCCN(c1ccc(OC)cc1[N+](=O)[O-])S(=O)(=O)c1ccccc1 [4-1]", "87.5%"],
  ["CCN1CCC(CN(c2ccc(C(C)C)cc2-c2ccccc2)S(=O)(=O)c2ccccc2)CC1 [4-45]", "103%"],
  ["CCN1CCC(CN(c2ccc(OC)cc2-c2cccc(F)c2)S(=O)(=O)c2ccccc2)CC1 [4-54]", "28.6%"],
  ["CCN1CCC(CN(c2ccc(OC)cc2-c2ccc(F)cc2)S(=O)(=O)c2ccccc2)CC1 [4-51]", "11.9%"]
]}
